- EXPERIMENTAL_SYSTEM: T1, human/cynomolgus monkey ROR1 protein (Acro Biosystems, Cat. No.: RO1-H522y) (human/cynomolgus monkey, UniProt Q01973 30-403)
- T1 construct: Bought SPR analyte
- T1 sequence (Q01973 30-403 limits assumed): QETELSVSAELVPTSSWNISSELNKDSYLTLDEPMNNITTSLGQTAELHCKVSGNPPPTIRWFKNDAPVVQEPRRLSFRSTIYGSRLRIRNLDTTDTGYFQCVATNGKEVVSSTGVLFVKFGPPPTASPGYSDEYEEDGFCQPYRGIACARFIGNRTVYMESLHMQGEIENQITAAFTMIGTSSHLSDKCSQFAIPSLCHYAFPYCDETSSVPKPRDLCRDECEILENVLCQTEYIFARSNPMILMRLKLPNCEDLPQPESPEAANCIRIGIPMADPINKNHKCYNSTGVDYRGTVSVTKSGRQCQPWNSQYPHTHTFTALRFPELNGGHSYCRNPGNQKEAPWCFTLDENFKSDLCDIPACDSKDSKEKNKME
- TEST_METHOD_NOTES: SPR (Biacore), antibody captured on anti-hIgG CM5 chip, ROR1 protein as analyte, 1:1 model
REPORTED_PROPERTY: Kd (nM)

BINDER: ch137G11D10 (antibody, human IgG1, kappa, V domains shown, also called chimeric antibody of m137G11D10) VH: DVQLQESGPGLVKPSQSLSLTCTVTGYSITSDYAWNWIRQFPGNKLEWMGYITYSASTSYNPSLKSRISITRDTSKNQFFLQLNSVTTEDTATYYCARGAGTYYFDYWGQGSTLTVSS VL: DIVLTQSPASLSVATGEKVTIRCITSTDIDEDMNWYQQKPGEPPKLLISEDNSLRPGVPSRFSSSGYGTDFVLTIENTLSEDVADYYCLQTNNLPLTFGAGTKLEIKR
REPORTED_PROPERTY: Kd
RESULT_UNIT: nM
RECORDED_MEASUREMENT: 0.61
